Can you tell me AUCall Mean for the items I'm about to list?
# procedure-details: Pharmacokinetics of released PEGylated protease inhibitor following P.O. administration of prodrugs in rats
# Assay type: in vivo, male Sprague-Dawley rats
# Design: concentration or dose not given beside the values
# test-parameters: mPEG5-atazanavir in plasma after PO administration of mPEG5-ATV or of the listed prodrug, rats (n = 4-5)

Record summary for COCCOCCOCCOCCOCCOC(=O)NC(C(=O)NC(Cc1ccccc1)C(CN(Cc1ccc(-c2ccccn2)cc1)NC(=O)C(NC(=O)OC)C(C)(C)C)OC(=O)C(N)C(C)C)C(C)(C)C.Cl [mPEG5-ATV-L-valine, mPEG5-Atazanavir-L-valine HCl] : reported AUCall Mean = 9.14 ng·h/mL

In plain terms, COCCOCCOCCOCCOCCOC(=O)NC(C(=O)NC(Cc1ccccc1)C(CN(Cc1ccc(-c2ccccn2)cc1)NC(=O)C(NC(=O)OC)C(C)(C)C)OC(=O)COCCOC(=O)C(N)Cc1ccccc1)C(C)(C)C.Cl (stereo not shown) [mPEG5-Atazanavir-CME-phenylalanine HCl] has a documented AUCall Mean of 54.1 ng·h/mL

Notebook: COCCOCCOCCOCCOCCOC(=O)N[C@H](C(=O)N[C@@H](Cc1ccccc1)[C@H](CN(Cc1ccc(-c2ccccn2)cc1)NC(=O)[C@@H](NC(=O)OC)C(C)(C)C)OC(=O)[C@H](CC(C)C)NC(=O)[C@@H](N)CC(C)C)C(C)(C)C.Cl [Leu-Leu-mPEG5-Atazanavir HCl, Leu-Leu-mPEG5-Atazanavir Hydrochloride] , AUCall Mean read as 118 ng·h/mL

Would you kindly look at the next entry?
The recorded AUCall Mean for entry CCOC(C)OC(CN(Cc1ccc(-c2ccccn2)cc1)NC(=O)C(NC(=O)OC)C(C)(C)C)C(Cc1ccccc1)NC(=O)C(NC(=O)OCCOCCOCCOCCOCCOC)C(C)(C)C (mixture of isomers) [1-ethoxyethoxy-mPEG5-Atazanivir, ethoxy ethoxy mPEG5-atazanavir] equals 329 ng·h/mL

* * *

# procedure-details: Pharmacokinetics of released PEGylated protease inhibitor following P.O. administration of prodrugs in rats
# Assay type: in vivo, male Sprague-Dawley rats
# test-parameters: mPEG3-atazanavir in plasma after PO administration of mPEG3-ATV or of the listed prodrug, rats (n = 4-5)
measured-parameter: AUCall Mean (ng·h/mL)
Numbers only, in ng·h/mL.

Some solved cases for reference:
Noted for CCCC(=O)O[C@@H](CN(Cc1ccc(-c2ccccn2)cc1)NC(=O)[C@@H](NC(=O)OC)C(C)(C)C)[C@H](Cc1ccccc1)NC(=O)[C@@H](NC(=O)OCCOCCOCCOC)C(C)(C)C [C3H7CO-mPEG3-ATV, mPEG3-Atazanavir Butyrate] : its AUCall Mean reads 11.4

COCCOCCOCCOC(=O)NC(C(=O)NC(Cc1ccccc1)C(CN(Cc1ccc(-c2ccccn2)cc1)NC(=O)C(NC(=O)OC)C(C)(C)C)OC(=O)COCCOC(=O)C(Cc1ccccc1)NC(=O)C(N)Cc1ccccc1)C(C)(C)C.Cl (stereo not shown) has a reported AUCall Mean of 120

CCOC(C)OC(CN(Cc1ccc(-c2ccccn2)cc1)NC(=O)C(NC(=O)OC)C(C)(C)C)C(Cc1ccccc1)NC(=O)C(NC(=O)OCCOCCOCCOC)C(C)(C)C (mixture of isomers) has a reported AUCall Mean of 500

More entries:
Memo: COCCOCCOCCOC(=O)NC(C(=O)NC(Cc1ccccc1)C(CN(Cc1ccc(-c2ccccn2)cc1)NC(=O)C(NC(=O)OC)C(C)(C)C)OC(=O)COCCOC(=O)C(N)Cc1ccccc1)C(C)(C)C.Cl (stereo not shown) [mPEG3-Atazanavir-CME-phenylalanine HCl, mPEG3-atazanavir-CME-phenylalanine] , reported AUCall Mean: 99.5
